Where do the numbers come from? From patent US20070280945A1.

Overview of recorded HepG2/Stat3 Luciferase activity IC50 for various binders
Biological target: T1, hIL-6R on hIL-6-responsive human cells (XG-1 myeloma line, HepG2 hepatoma line) (human, UniProt P08887 20-468)
T1 sequence (looked up): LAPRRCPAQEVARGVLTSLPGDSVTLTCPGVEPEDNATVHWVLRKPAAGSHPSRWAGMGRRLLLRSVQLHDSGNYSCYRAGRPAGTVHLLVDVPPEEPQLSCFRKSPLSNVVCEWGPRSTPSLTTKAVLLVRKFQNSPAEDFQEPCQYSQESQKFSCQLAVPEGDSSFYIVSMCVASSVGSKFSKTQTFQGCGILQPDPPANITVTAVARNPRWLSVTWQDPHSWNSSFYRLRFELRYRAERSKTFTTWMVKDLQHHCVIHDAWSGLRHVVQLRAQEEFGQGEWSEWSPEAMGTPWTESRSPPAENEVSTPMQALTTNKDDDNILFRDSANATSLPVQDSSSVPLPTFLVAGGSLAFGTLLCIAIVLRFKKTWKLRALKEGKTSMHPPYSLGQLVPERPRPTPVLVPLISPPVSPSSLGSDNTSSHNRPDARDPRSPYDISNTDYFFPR
Experiment: cell-based or functional assay
Write the value in nM as a bare number.

binder	display_unit	HepG2/Stat3 Luciferase activity IC50
VV6A9-5 (antibody, V domains shown, Human variable regions with mouse constant region; also called VV6A9-5 mIgG2a) VH: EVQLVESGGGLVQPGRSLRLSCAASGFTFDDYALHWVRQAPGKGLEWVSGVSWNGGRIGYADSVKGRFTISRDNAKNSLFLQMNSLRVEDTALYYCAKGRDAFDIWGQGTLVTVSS VL: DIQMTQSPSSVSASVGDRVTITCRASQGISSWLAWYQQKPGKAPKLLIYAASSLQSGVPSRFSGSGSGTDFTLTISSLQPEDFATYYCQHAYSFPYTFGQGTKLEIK	nM	0.188

Req: Dear colleague, please send me the reported HepG2/Stat3 Luciferase activity IC50 for VQ8F11-21 (antibody, V domains shown, Human variable regions with mouse constant region; also called VQ8F11-21 mIgG2a) VH: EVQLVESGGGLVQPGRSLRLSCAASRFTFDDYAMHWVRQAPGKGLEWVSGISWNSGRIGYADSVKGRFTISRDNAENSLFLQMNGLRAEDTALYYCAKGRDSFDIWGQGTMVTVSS VL: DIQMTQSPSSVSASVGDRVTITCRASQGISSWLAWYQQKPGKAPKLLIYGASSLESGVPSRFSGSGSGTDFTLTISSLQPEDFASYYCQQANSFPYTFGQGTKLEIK when you can.
Resp: 0.135

Req: Dear colleague, please send me the reported HepG2/Stat3 Luciferase activity IC50 for VQ8A9-6 (antibody, V domains shown, Human variable regions with mouse constant region (hybridoma-derived chimeric antibody); also called VQ8A9-6 mIgG1) VH: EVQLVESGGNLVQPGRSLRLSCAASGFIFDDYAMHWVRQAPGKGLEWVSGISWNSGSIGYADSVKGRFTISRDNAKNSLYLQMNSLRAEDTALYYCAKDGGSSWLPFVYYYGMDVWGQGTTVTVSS VL: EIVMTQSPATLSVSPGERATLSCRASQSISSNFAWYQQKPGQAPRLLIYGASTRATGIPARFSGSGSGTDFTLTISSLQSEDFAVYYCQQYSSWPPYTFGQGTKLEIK when you can.
Resp: 0.097

Req: Dear colleague, please send me the reported HepG2/Stat3 Luciferase activity IC50 for VV1G4-7 (antibody, IgG2a, V domains shown, Human variable regions with mouse constant region) VH: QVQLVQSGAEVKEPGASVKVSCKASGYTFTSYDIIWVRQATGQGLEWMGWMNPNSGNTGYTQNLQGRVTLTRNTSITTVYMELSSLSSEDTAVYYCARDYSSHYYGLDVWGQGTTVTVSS VL: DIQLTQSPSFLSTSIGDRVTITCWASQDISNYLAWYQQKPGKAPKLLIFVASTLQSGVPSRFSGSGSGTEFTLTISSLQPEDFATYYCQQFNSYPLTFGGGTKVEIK when you can.
Resp: 0.578
